Target: Integrin alpha-L (Homo sapiens, UniProt P20701)
Sequence (P20701 whole entry, the tested form may be a part): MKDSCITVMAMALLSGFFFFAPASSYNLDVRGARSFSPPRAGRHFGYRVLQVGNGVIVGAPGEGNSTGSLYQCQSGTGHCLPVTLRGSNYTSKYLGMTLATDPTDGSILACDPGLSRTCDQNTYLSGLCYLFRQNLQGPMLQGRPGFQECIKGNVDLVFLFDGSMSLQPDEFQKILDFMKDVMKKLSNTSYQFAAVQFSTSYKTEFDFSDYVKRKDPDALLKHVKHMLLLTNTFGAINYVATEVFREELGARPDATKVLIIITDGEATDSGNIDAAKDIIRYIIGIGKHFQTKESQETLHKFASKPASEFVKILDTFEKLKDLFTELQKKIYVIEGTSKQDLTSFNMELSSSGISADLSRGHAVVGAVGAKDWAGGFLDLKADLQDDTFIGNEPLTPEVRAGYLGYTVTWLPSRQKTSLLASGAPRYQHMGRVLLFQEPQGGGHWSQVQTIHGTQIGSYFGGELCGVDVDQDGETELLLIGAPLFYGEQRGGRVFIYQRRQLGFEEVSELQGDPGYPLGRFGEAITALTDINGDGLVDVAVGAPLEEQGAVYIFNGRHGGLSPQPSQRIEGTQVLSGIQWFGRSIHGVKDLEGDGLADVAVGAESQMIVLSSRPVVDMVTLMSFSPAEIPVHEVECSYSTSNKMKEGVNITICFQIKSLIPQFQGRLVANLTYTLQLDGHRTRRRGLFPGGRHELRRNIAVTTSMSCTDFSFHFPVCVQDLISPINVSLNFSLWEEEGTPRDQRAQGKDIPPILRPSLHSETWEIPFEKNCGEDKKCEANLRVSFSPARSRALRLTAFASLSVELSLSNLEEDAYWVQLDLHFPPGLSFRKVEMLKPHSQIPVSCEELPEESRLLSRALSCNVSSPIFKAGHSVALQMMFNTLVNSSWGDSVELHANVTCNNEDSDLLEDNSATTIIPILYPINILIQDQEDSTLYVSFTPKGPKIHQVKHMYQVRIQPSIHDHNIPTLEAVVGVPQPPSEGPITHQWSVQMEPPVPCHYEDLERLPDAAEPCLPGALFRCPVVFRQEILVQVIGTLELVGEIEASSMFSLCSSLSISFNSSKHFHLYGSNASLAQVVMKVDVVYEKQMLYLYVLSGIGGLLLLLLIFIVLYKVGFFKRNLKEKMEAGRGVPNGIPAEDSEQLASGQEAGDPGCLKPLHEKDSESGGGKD
Assay: Antagonist activity at C-terminal 6xHis-tagged LFA-1 LBD (unknown origin) expressed in Escherichia coli assessed as inhibition of interaction with ICAM-1 preincubated for 30 mins followed by ICAM-1 addition measured after 60 mins by ELISA
Kindly supply the reported log10(IC50) values for the records listed here.
Plainly stated, the numbers are log10 of IC50 given in nM.

input: Dear colleague, I am looking for the recorded log10(IC50) of the following molecule: CCNC(=O)C1(Nc2nc(N[C@@H](C)c3ccccc3)nc(N3CC4CC3CN4C(=O)c3cccc(C(F)(F)F)c3)n2)Cc2ccccc2C1 (some centres not stated)
output: 2.26

input: For CCNC(=O)C1(Nc2nc(N[C@@H](C)c3ccc(Br)cc3)nc(N3CC4CC3CN4S(=O)(=O)c3ccccc3OC(F)(F)F)n2)Cc2ccccc2C1 (some centres not stated) , what is its reported log10(IC50)?
output: 2.07

input: Reported log10(IC50), molecule CCNC(=O)C1(Nc2nc(NCCc3ccccc3)nc(N3CC4CC3CN4C(=O)c3cccc(C(F)(F)F)c3)n2)Cc2ccccc2C1 (configuration not stated) : ____
output: 2.69

input: # get_value(readout='log10(IC50)', item= O=C(c1cccc(C(F)(F)F)c1)N1CC2CC1CN2c1nc(NCCc2ccc(Cl)c(Cl)c2)nc(NC2(C(=O)O)Cc3ccccc3C2)n1 (configuration not stated) )
output: 1.57

input: Given CCNC(=O)C1(Nc2nc(NCCc3ccc(Cl)c(Cl)c3)nc(N3CC4CC3CN4C(=O)c3cccc(C(F)(F)F)c3)n2)Cc2ccccc2C1 (configuration not stated) , state its recorded log10(IC50).
output: 1.36

input: Requested field: log10(IC50). Item: O=C(c1cccc(C(F)(F)F)c1)N1CC2CC1CN2c1nc(NCCc2ccc(Cl)c(Cl)c2)nc(NC2Cc3ccccc3C2)n1 (configuration not stated)
output: 2.55

###

Molecular target: Integrin alpha-L (Homo sapiens, UniProt P20701)
Assay: Antagonist activity at C-terminal 6xHis-tagged LFA-1 LBD (unknown origin) expressed in Escherichia coli assessed as inhibition of interaction with ICAM-1 preincubated for 30 mins followed by ICAM-1 addition measured after 60 mins by ELISA
value type: IC50

input: Reported IC50 for CCNC(=O)C1(Nc2nc(NCc3ccccc3)nc(N3CC4CC3CN4C(=O)c3cccc(C(F)(F)F)c3)n2)Cc2ccccc2C1 (centres undefined) : what is it?
output: 7900 nM

input: Report IC50 for CCN1/C(=C/C=C/C2=[N+](CCCCCC(=O)NCCCCNC(=O)C3(Nc4nc(NCCc5ccc(Cl)c(Cl)c5)nc(N5CC6CC5CN6C(=O)c5cccc(C(F)(F)F)c5)n4)Cc4ccccc4C3)c3ccc(S(=O)(=O)O)cc3C2(C)C)C(C)(C)c2cc(S(=O)(=O)O)ccc21 (centres undefined) please.
output: 100 nM

input: Requested read-out: IC50. Entry: O=C(O)C1(Nc2nc(NCCc3ccc(Cl)c(Cl)c3)nc(N3CC4CC3CN4S(=O)(=O)c3cccc(C(F)(F)F)c3)n2)Cc2ccccc2C1 (centres undefined)
output: 65 nM

input: Quick one: IC50 of O=C(c1cccc(C(F)(F)F)c1)N1CC2CC1CN2c1nc(NCCc2ccc(Cl)c(Cl)c2)nc(NC2CCCC2)n1 (centres undefined) ?
output: > 10000 nM

input: Which value of IC50 has been reported for CCNC(=O)C1(Nc2nc(NCCc3ccc(Cl)c(Cl)c3)nc(N3CC4CC3CN4S(=O)(=O)c3ccccc3OC(F)(F)F)n2)Cc2ccccc2C1 (centres undefined) in the records?
output: 22 nM

input: # lookup: IC50 of `CCNC(=O)C1(Nc2nc(NCCc3ccc(Cl)c(Cl)c3)nc(N3CCCC3)n2)Cc2ccccc2C1`
output: 12900 nM

input: Could you share which IC50 value was measured for CCNC(=O)C1(Nc2nc(N[C@H](C)c3ccccc3)nc(N3CC4CC3CN4C(=O)c3cccc(C(F)(F)F)c3)n2)Cc2ccccc2C1 (some centres undefined) ?
output: > 10000 nM

input: Suppose we examine the compound CCNC(=O)C1(Nc2nc(N[C@@H](C)c3ccc(Br)cc3)nc(N3CC4CC3CN4C(=O)c3cccc(C(F)(F)F)c3)n2)Cc2ccccc2C1 (some centres undefined) ; what IC50 value has been reported?
output: 16 nM

input: So what does the record say about IC50 for CCN1/C(=C/C=C/C2=[N+](CCCCCC(=O)NCCCCNC(=O)C3(Nc4nc(NCCc5ccc(Cl)c(Cl)c5)nc(N5CC6CC5CN6S(=O)(=O)c5cccc(C(F)(F)F)c5)n4)Cc4ccccc4C3)c3ccc(S(=O)(=O)O)cc3C2(C)C)C(C)(C)c2cc(S(=O)(=O)O)ccc21 (centres undefined) ?
output: 28 nM

Sourced from ChEMBL document CHEMBL3297711
